assayed_target: CCR-3 receptor (Homo sapiens)
Sequence (P51677 1-355): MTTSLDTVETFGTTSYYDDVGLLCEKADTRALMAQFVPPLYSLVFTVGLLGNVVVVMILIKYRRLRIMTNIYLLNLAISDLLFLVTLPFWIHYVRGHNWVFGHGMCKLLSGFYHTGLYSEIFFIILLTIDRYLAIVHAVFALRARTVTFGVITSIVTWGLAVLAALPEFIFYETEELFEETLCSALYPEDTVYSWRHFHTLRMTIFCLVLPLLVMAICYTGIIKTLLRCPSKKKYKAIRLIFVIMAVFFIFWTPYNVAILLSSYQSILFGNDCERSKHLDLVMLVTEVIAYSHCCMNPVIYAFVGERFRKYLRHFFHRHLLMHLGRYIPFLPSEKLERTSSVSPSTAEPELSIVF
readout_label: IC50 (nM)

I = CC(C)C(CN1CCN(Cc2ccc(Cl)c(Cl)c2)CC1)Nc1nc2ccccc2o1 (centres unmarked) [Example 28]
II = CC(C)(C)[C@H](CN1CCC(Cc2ccc(Cl)c(Cl)c2)CC1)Nc1nc2ccccc2o1 [Example 18]
Request: Of I and II , whose reported IC50 is the larger number? Please identify the chosen entry by its label.
Result: I
(I: 970 nM, II: 150 nM)
